Biological target: hMC5-R
Construct: expressed in transfected cells; host or cells: HEK-293
Assay: Competitive inhibition assay using [I125]-NDP-α-MSH, hMC5-R membranes
Assay type: binding, human
Details: read-out: Ki (nM) (NDP-α-MSH) MC5-R
Method: Competitive inhibition assay using [1125]-NDP-α-MSH. […] The assay mixture was incubated for 90 minutes at room temperature, then filtered and the membranes washed three times with ice cold buffer. The filter was dried and counted in a gamma counter for remaining radioactivity bound to the membranes. 100% specific binding was defined as the difference in radioactivity (cpm) bound to cell membranes in the absence and presence of 1 μM α-MSH. […]
Reported property: Ki (nM)
Value expressed in nM; do not type the unit.

For NH2—(CH2)6—C(═O)-Ser(Bzl)-D-Phe(4-Cl)-Arg-Trp-Asp-Phe-NH2 [Example 15] , write its Ki. 405

---

Molecular target: hMC4-R
Construct: expressed in transfected cells; host or cells: HEK-293
Experiment: Competitive inhibition assay using [I125]-NDP-α-MSH, hMC4-R membranes
Type: binding, human
Conditions: read-out: Ki (nM) (NDP-α-MSH) MC4-R
Experimental: Competitive inhibition assay using [1125]-NDP-α-MSH. […] The assay mixture was incubated for 90 minutes at room temperature, then filtered and the membranes washed three times with ice cold buffer. The filter was dried and counted in a gamma counter for remaining radioactivity bound to the membranes. 100% specific binding was defined as the difference in radioactivity (cpm) bound to cell membranes in the absence and presence of 1 μM α-MSH. […]
Reported property: Ki (nM)
Value expressed in nM; do not type the unit.

N=C(N)NCCC[C@H]1C(=O)N2C(CC[C@@H]2COc2ccc3ccccc3c2)N1C(=O)[C@@H](Cc1ccc(Cl)cc1Cl)NC(=O)[C@@H]1Cc2ccccc2CN1 (stereo partly shown)
1
N=C(N)NCCC[C@H]1C(=O)N(CCc2c[nH]c3ccccc23)CCN1C(=O)[C@H](N)Cc1ccc(Cl)cc1Cl
15
C[C@@H]1CN(C(=O)[C@H](N)Cc2ccc3ccccc3c2)[C@@H](CCCNC(=N)N)CN1C(=O)CCCc1c[nH]c2ccccc12
90
C[C@@H]1CN(C(=O)[C@H](N)Cc2ccc3ccccc3c2)[C@@H](CCCNC(=N)N)CN1C(=O)Cc1c[nH]c2ccccc12
35
CC(=O)N[C@H](Cc1ccc(C)cc1C)C(=O)N1C[C@@H](C)N(CCc2ccc3ccccc3c2)C[C@@H]1CCCNC(=N)N
1

For N=C(N)NCCC[C@H]1CN(C(=O)Cc2ccc3ccccc3c2)[C@H](Cc2ccccc2)CN1C[C@H](N)Cc1ccc2ccccc2c1 , write its Ki. 61

For Cc1cc(Cl)ccc1C[C@@H](N)C(=O)N1C[C@@H](C)N(CCc2c[nH]c3ccccc23)C[C@@H]1CCCNC(=N)N , write its Ki. 5

For CC(C)C[C@H]1CN(C(=O)[C@H](N)Cc2ccc(Cl)cc2Cl)[C@@H](CCCNC(=N)N)CN1CCc1ccc2ccccc2c1 , write its Ki. 48

---

target: hMC5-R; construct: expressed in transfected cells; host or cells: HEK-293; experiment: Competitive inhibition assay using [I125]-NDP-α-MSH, hMC5-R membranes; type: binding, human; settings: read-out: Ki (nM) (NDP-α-MSH) MC5-R
Sorting guide: entries reporting Ki beneath 700 nM go in the Yes pile, the rest go in the No pile.

Before answering, review these 8 worked examples.
N=C(N)NCCC[C@H]1CN(CCc2ccc3ccccc3c2)CCN1C(=O)[C@H](N)Cc1ccc(Cl)cc1Cl [Example 18]
Yes
Cc1[nH]c2ccccc2c1CCN1C[C@H](CCCNC(=N)N)N(C(=O)[C@H](N)Cc2ccc3ccccc3c2)C[C@H]1C [Example 9]
Yes
C[C@@H]1CN(C(=O)[C@H](N)Cc2ccc3ccccc3c2)[C@@H](CCCNC(=N)N)CN1C(=O)CCCc1c[nH]c2ccccc12 [Example 7]
Yes
N=C(N)NCCC[C@H]1CN(C(=O)Cc2ccc3ccccc3c2)[C@H](Cc2ccccc2)CN1C[C@H](N)Cc1ccc2ccccc2c1 [Example 30]
Yes
C[C@@H]1CN(C(=O)[C@H](N)Cc2ccc3ccccc3c2)[C@@H](CCCNC(=N)N)CN1CCc1c[nH]c2ccccc12 [Example 8]
No
Cc1ccc(C[C@@H](N)C(=O)N2C[C@@H](C)N(CCc3ccc4ccccc4c3)C[C@@H]2CCCNC(=N)N)c(C)c1 [Example 28]
Yes
CC(=O)N[C@H](Cc1ccc(C)cc1C)C(=O)N1C[C@@H](C)N(CCc2ccc3ccccc3c2)C[C@@H]1CCCNC(=N)N [Example 26]
Yes
Cc1cc(Cl)ccc1C[C@@H](N)C(=O)N1C[C@@H](C)N(C(=O)Cc2ccc3ccccc3c2)C[C@@H]1CCCNC(=N)N [Example 11]
No

Please find the next compound below.
Confirm or reject: Ki of N=C(N)NCCC[C@H]1C(=O)N2C(CC[C@@H]2COc2ccc3ccccc3c2)N1C(=O)[C@@H](Cc1ccc(Cl)cc1Cl)NC(=O)[C@@H]1Cc2ccccc2CN1 (stereo partly shown) [Example 23] lies strictly below 700 nM Yes
